System: RARa:RXR (NR concentration 270 nM, RXRa partner concentration 90 nM)
METHOD NOTES: PBM binding z-score (relative to random genomic background probes); higher = stronger binding; sequences stand for … in GC…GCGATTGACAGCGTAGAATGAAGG
EXPERIMENTAL READOUT: PBM binding z-score

> print(dat)
                         sequence.code  endpoint.result
 1  ATCGAAAGGTTGAAGGTGAGTATACCCACCCGAA             1.79
 2  CCAAGTAGGTTATGGGGCATTCAGGCAACGGTGA            0.207
 3  CCTCGGAGGACATCAGGAGGTCAGAGCTGCCAGA             2.43
 4  TCTGCTAGGTCTACGATGGTCAGCTAATCTGCTA            -1.07
 5  CCTTACGGGTCAAGGGTATAGCACGGGTGGTACG             4.27
 6  TTTTGTAGATCAGCAGGTTAAGAAAGCTGGCCAA            0.084
 7  ATCTCTAGGTAAAGTTCGGTGAAAGATCGATAGA            0.644
 8  AATACAGGGTCACTAGCCCAGAGTAGGTACGAAT             3.64
 9  TGAATGAGGTTAGAAGATCAGGGAACGTTGCAAA            0.485
10  CCTACTGGGACATTCAGAGGTCATTGATCATATG             4.96
11  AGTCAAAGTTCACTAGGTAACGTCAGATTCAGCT             3.22
12  CCTACTTGGCCAAAGGTCATTGATTCCAATGCTC             5.85

The values you see were collected from the supplement of paper PMC6555819.
